test system: Aspergillus fumigatus; experiment: Antifungal activity against Aspergillus fumigatus CGMCC 3.7795 assessed as inhibition of fungal growth by microdilution method; assay type: functional
Value type: MIC (µg/mL)

Cc1ccc(C[Se]CC(O)(Cn2cncn2)c2ccc(F)cc2F)cc1 (configuration not stated)
2
OC(C[Se]Cc1ccc(F)cc1)(Cn1cncn1)c1ccc(F)cc1F (configuration not stated)
2
Cc1cccc([Se]CC(O)(Cn2cncn2)c2ccc(F)cc2F)c1 (configuration not stated)
8
COc1cccc(C[Se]CC(O)(Cn2cncn2)c2ccc(F)cc2F)c1 (configuration not stated)
4
OC(C[Se]Cc1cccc(F)c1)(Cn1cncn1)c1ccc(F)cc1F (configuration not stated)
2
CCc1ccccc1[Se]CC(O)(Cn1cncn1)c1ccc(F)cc1F (configuration not stated)
4
COc1ccc([Se]CC(O)(Cn2cncn2)c2ccc(F)cc2F)cc1 (configuration not stated)
16
